The reported measurements were obtained from patent US12134610B2.

Molecular target: human somatostatin receptor subtype 2 (Homo sapiens, UniProt P30874)
Construct: expressed in transfected cells
Sequence (P30874 whole entry): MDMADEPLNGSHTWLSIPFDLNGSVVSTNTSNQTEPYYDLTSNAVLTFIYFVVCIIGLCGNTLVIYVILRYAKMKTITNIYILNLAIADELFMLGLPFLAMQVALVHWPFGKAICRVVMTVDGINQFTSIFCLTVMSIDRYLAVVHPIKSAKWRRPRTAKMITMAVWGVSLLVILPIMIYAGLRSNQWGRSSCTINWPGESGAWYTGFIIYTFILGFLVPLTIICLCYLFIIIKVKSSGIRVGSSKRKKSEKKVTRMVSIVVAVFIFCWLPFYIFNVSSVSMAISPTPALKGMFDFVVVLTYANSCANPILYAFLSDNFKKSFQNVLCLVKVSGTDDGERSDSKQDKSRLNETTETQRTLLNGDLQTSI
Experiment: Functional cAMP assay for SSTR2 agonists (HTRF) in CHO-K1 cells
Assay type: cell-based
Conditions: CHO-K1 cells stably expressing human SST2, 20 min; read-out: hSST2 cAMP Avg EC50
Starred links: 1 amine or outer side, 2 acyl side, 3 side chain; linkers in the order of their positions; H or OH if unused. Non-standard residues stand in square brackets, D forms with d. Residues, ends and D or L forms follow the SMILES beside them. *: point of attachment. X1 = Cc1cc(F)cc(-c2cnc(NCCNC(=O)CCOCCC(=O)*)c(-c3nc4ccc(Cl)cc4[nH]3)c2N2CCC(N)CC2)c1; Dolaproine = CO[C@@H]([C@@H]1CCCN1)[C@@H](C)C(=O)O; Dil = CC[C@H](C)[C@H](NC)[C@@H](CC(=O)O)OC; PABC = O=C(OCc1ccc(N[*:1])cc1)[*:2]; X2 = C[C@@H](N*)[C@@H](O)c1ccccc1; Cya = N[C@@H](CS(=O)(=O)O)C(=O)O; Cit = NC(=O)NCCC[C@H](N)C(=O)O; NMeV = CN[C@H](C(=O)O)C(C)C
measured.property: EC50 (nM)
API: value field is a number in nM; no unit string.

CC[C@H](C)[C@@H]([C@@H](CC(=O)N1CCC[C@H]1[C@H](OC)[C@@H](C)C(=O)N[C@H](C)[C@@H](O)c1ccccc1)OC)N(C)C(=O)[C@@H](NC(=O)[C@H](C(C)C)N(C)C(=O)OCc1ccc(NC(=O)[C@H](CCCNC(N)=O)NC(=O)[C@@H](NC(=O)[C@H](CS(=O)(=O)O)NC(=O)[C@H](CCC(=O)O)NC(=O)CCOCCC(=O)NCCNc2ncc(-c3cc(C)cc(F)c3)c(N3CCC(N)CC3)c2-c2nc3ccc(Cl)cc3[nH]2)C(C)C)cc1)C(C)C [Compound 115] (X1-E[Cya]V[Cit][PABC][NMeV]V[Dil][Dolaproine]-X2); 0.08
CC[C@H](C)[C@@H]([C@@H](CC(=O)N1CCC[C@H]1[C@H](OC)[C@@H](C)C(=O)N[C@H](C)[C@@H](O)c1ccccc1)OC)N(C)C(=O)[C@@H](NC(=O)[C@H](C(C)C)N(C)C(=O)OCc1ccc(NC(=O)[C@H](CCCNC(N)=O)NC(=O)[C@@H](NC(=O)[C@H](CCC(N)=O)NC(=O)CCOCCOCCOCCOCCC(=O)NCCNc2ncc(-c3cc(C)cc(F)c3)c(N3CCC(N)CC3)c2-c2nc3ccc(Cl)cc3[nH]2)C(C)C)cc1C(=O)NCCN)C(C)C; 0.37
CC[C@H](C)[C@@H]([C@@H](CC(=O)N1CCC[C@H]1[C@H](OC)[C@@H](C)C(=O)N[C@H](C)[C@@H](O)c1ccccc1)OC)N(C)C(=O)[C@@H](NC(=O)[C@H](C(C)C)N(C)C(=O)OCc1ccc(NC(=O)[C@H](CCCNC(N)=O)NC(=O)[C@@H](NC(=O)CCOCCC(=O)NCCNc2ncc(-c3cc(C)cc(F)c3)c(N3CCC(N)CC3)c2-c2nc3ccc(Cl)cc3[nH]2)C(C)C)cc1C(=O)NCC(N)=O)C(C)C; 0.17

Give the measured EC50 for CC[C@H](C)[C@@H]([C@@H](CC(=O)N1CCC[C@H]1[C@H](OC)[C@@H](C)C(=O)N[C@H](C)[C@@H](O)c1ccccc1)OC)N(C)C(=O)[C@@H](NC(=O)[C@H](C(C)C)N(C)C(=O)OCc1ccc(NC(=O)[C@H](CCCNC(N)=O)NC(=O)[C@@H](NC(=O)CNC(=O)[C@H](CCC(=O)O)NC(=O)[C@H](CCC(=O)O)NC(=O)CCOCCC(=O)NCCNc2ncc(-c3cc(C)cc(F)c3)c(N3CCC(N)CC3)c2-c2nc3ccc(Cl)cc3[nH]2)C(C)C)cc1)C(C)C [Compound 111] (X1-EEGV[Cit][PABC][NMeV]V[Dil][Dolaproine]-X2)
1.2
